B1: Myocardin, residues 363 to 406; numbered along this chain, Q8IZQ8 (parent)
chain: KPGPLPPNLDDLKVSELRQQLRIRGLPVSGTKTALMDRLRPFQD

- Variants of: B1
- assay-summary: abundance fitness (aPCA) (normalised: wild type 0, dead -1); higher = more abundant; growth selection in yeast, the domain comes from the species named
- cond: Homo sapiens
Values of abundance fitness greater than or equal to -0.2 map to yes; values below map to no.

## Task abundance fitness >= -0.2 for `L35M` ?
## Result yes

## Task abundance fitness >= -0.2 for `P41H` ?
## Result yes

## Task abundance fitness >= -0.2 for `T33M` ?
## Result no

## Task abundance fitness >= -0.2 for `R24W` ?
## Result no

## Task abundance fitness >= -0.2 for `L35S` ?
## Result no

Others:
## Task abundance fitness >= -0.2 for `R24K` ?
## Result no

## Task abundance fitness >= -0.2 for `V28G` ?
## Result yes

## Task abundance fitness >= -0.2 for `R38Y` ?
## Result no

## Task abundance fitness >= -0.2 for `R18I` ?
## Result yes

## Task abundance fitness >= -0.2 for `D44N` ?
## Result no

## Task abundance fitness >= -0.2 for `P6E` ?
## Result yes
